Test system: ASCT2
MEASUREMENT_PROTOCOL: ASCT2 activity: [^14C]-L-alanine uptake in fibrosarcoma HT-1080 cells after ASCT2 gene silencing
Assay type: cell-based, human
CONDITIONS: fibrosarcoma HT-1080 cells; 5 nM siRNA; treatment 6 h; at 48 h; 0.4% Lipofectamine 2000; FIG. 8B
OBSERVED_PROPERTY: [^14C]-L-alanine (0.25 μM) uptake at initial rate of uptake (1 min)

>  <SUBSTANCE>
267/356/402 (sense CCGGUCCUGUACCGUCCUCAA; antisense UUGAGGACGGUACAGGACCGG; chemistry not given here)

>  <RECORDED_RESULT>
decreased

$$$$
>  <SUBSTANCE>
267/397/398 (sense CCGGUCCUGUACCGUCCUCAATT; antisense UUGAGGACGGUACAGGACCGGTT; siRNA; sugars by position and backbone not given here; further chemistry not fully specified)

>  <RECORDED_RESULT>
decreased

$$$$
>  <SUBSTANCE>
278/367/408 (sense UGCCACGGUCGCCUCUGAGAA; antisense UUCUCAGAGGCGACCGUGGCA; chemistry not given here)

>  <RECORDED_RESULT>
decreased

$$$$
>  <SUBSTANCE>
278/403/404 (sense UGCCACGGUCGCCUCUGAGAATT; antisense UUCUCAGAGGCGACCGUGGCATT; siRNA; sugars by position and backbone not given here; further chemistry not fully specified)

>  <RECORDED_RESULT>
decreased

$$$$

All values here come from patent US10590422B2.
